I'd appreciate it if you could supply selectivity ratio values for the items below.
# assayName: Selectivity index, ratio of CC50 for african green monkey Vero/TMPRSS2 cells to EC50 for antiviral activity against SARS CoV-2 USA-WA1/2020 infected in Vero/TMPRSS2 cells
# Assay type: toxicity, cell-based
# assaySetup: read-out: Ratio CC50/EC50

selectivity ratio measured on `CCCCCCCCCCCCCCCCOC[C@H](COP(=O)(O)OC[C@H]1O[C@@](C#N)(c2ccc3c(N)ncnn23)[C@H](O)[C@@H]1O)OCc1ccccc1` = > 248

selectivity ratio measured on `CCCCCCCCCCCCCCCCCCOC[C@H](COP(=O)(O)OC[C@H]1O[C@@](C#N)(c2ccc3c(N)ncnn23)[C@H](O)[C@@H]1O)OCc1ccc(OC)c(F)c1` = > 561

selectivity ratio measured on `CCCCCCCCCCCCCCCCCCOC[C@H](COP(=O)(O)OC[C@H]1O[C@@](C#N)(c2ccc3c(N)ncnn23)[C@H](O)[C@@H]1O)OCc1cccc(F)c1` = > 369

selectivity ratio measured on `CCCCCCCCCCCCCCCCOC[C@H](COP(=O)(O)OC[C@H]1O[C@@](C#N)(c2ccc3c(N)ncnn23)[C@H](O)[C@@H]1O)OCc1ccc(OC)c(F)c1` = > 246

selectivity ratio measured on `CCCCCCCCCCCCCCCCCCOC[C@H](COP(=O)(O)OC[C@H]1O[C@@](C#N)(c2ccc3c(N)ncnn23)[C@H](O)[C@@H]1O)OCc1ccccc1C#N` = > 337

selectivity ratio measured on `CCCCCCCC/C=C\CCCCCCCCOC[C@H](COP(=O)(O)OC[C@H]1O[C@@](C#N)(c2ccc3c(N)ncnn23)[C@H](O)[C@@H]1O)OCc1ccccc1` = > 341

selectivity ratio measured on `CCCCCCCC/C=C\CCCCCCCCOC[C@H](COP(=O)(O)OC[C@H]1O[C@@](C#N)(c2ccc3c(N)ncnn23)[C@H](O)[C@@H]1O)OCc1ccc(OC)c(F)c1` = > 333

selectivity ratio measured on `CCCCCCCCCCCCCCCCCCOC[C@H](COP(=O)(O)OC[C@H]1O[C@@](C#N)(c2ccc3c(N)ncnn23)[C@H](O)[C@@H]1O)OCCCCCCCC` = > 129

selectivity ratio measured on `CCCCCCCCCCCCCCOC[C@H](COP(=O)(O)OC[C@H]1O[C@@](C#N)(c2ccc3c(N)ncnn23)[C@H](O)[C@@H]1O)OCc1ccccc1` = > 110

---

# Test system: SARS-CoV-2
# assayName: Antiviral activity against SARS CoV-2 USA-WA1/2020 infected in human iPSC-lung cells pretreated for 30 to 60 mins followed by viral infection and measured after 24 hrs post infection by sytox green staining based analysis
# Assay type: functional, organism-based
# assaySetup: Severe acute respiratory syndrome coronavirus 2, USA-WA1/2020, iPSC-Lung cell
readoutLabel: EC50 (nM)
Write the number in nM without appending the unit.

EC50 measured on `CCCCCCCC/C=C\CCCCCCCCOC[C@H](COP(=O)(O)OC[C@H]1O[C@@](C#N)(c2ccc3c(N)ncnn23)[C@H](O)[C@@H]1O)OCc1ccccc1` = 267

EC50 measured on `CCCCCCCC/C=C\CCCCCCCCOC[C@H](COP(=O)(O)OC[C@H]1O[C@@](C#N)(c2ccc3c(N)ncnn23)[C@H](O)[C@@H]1O)OCc1ccc(OC)c(F)c1` = 82

---

# assayName: Cytotoxicity against human Calu-3 cells assessed as reduction in cell viability incubated for 48.5 hrs by CellTiter-Glo assay
# Assay type: toxicity, cell-based
readoutLabel: CC50 at 48.5 h

CC50 at 48.5 h measured on `N#C[C@@]1(c2ccc3c(N)ncnn23)O[C@H](CO)[C@@H](O)[C@H]1O` = > 100 µM

---

I'd appreciate it if you could supply selectivity ratio values for the items below.
# assayName: Selectivity index, ratio of CC50 for cytotoxicity against human calu-3 cells to EC50 for antiviral activity against SARS CoV-2 USA-WA1/2020 infected in human Calu-3 cells
# Type: toxicity, cell-based
# assaySetup: read-out: Ratio CC50/EC50
// no unit string in output, number only

selectivity ratio measured on `CCCCCCCCCCCCCCCCCCOC[C@H](COP(=O)(O)OC[C@H]1O[C@@](C#N)(c2ccc3c(N)ncnn23)[C@H](O)[C@@H]1O)OCc1ccc(OC)c(F)c1` = 656

selectivity ratio measured on `CCCCCCCCCCCCCCCCOC[C@H](COP(=O)(O)OC[C@H]1O[C@@](C#N)(c2ccc3c(N)ncnn23)[C@H](O)[C@@H]1O)OCc1ccccc1` = 934

selectivity ratio measured on `CCCCCCCCCCCCCCCCCCOC[C@H](COP(=O)(O)OC[C@H]1O[C@@](C#N)(c2ccc3c(N)ncnn23)[C@H](O)[C@@H]1O)OCc1cccc(C(F)(F)F)c1` = 418

selectivity ratio measured on `CCCCCCCCCCCCCCCCCCOC[C@H](COP(=O)(O)OC[C@H]1O[C@@](C#N)(c2ccc3c(N)ncnn23)[C@H](O)[C@@H]1O)OCCC1CCCCC1` = 685

selectivity ratio measured on `CCCCCCCCCCCCCCCCOC[C@H](COP(=O)(O)OC[C@H]1O[C@@](C#N)(c2ccc3c(N)ncnn23)[C@H](O)[C@@H]1O)OCc1ccc(OC)c(F)c1` = 1480

---

# assayName: Selectivity index, ratio of CC50 for cytotoxicity against human calu-3 cells to EC50 for antiviral activity against SARS CoV-2 USA-WA1/2020 infected in human Calu-3 cells
# Assay type: toxicity, cell-based
# assaySetup: read-out: Ratio CC50/EC50
I'd appreciate it if you could supply selectivity ratio values for the items below.
// no unit string in output, number only

selectivity ratio measured on `CCCCCCCCCCCCCCCCCCOC[C@H](COP(=O)(O)OC[C@H]1O[C@@](C#N)(c2ccc3c(N)ncnn23)[C@H](O)[C@@H]1O)OCc1ccc(C(F)(F)F)cc1` = 509

selectivity ratio measured on `CCCCCCCCCCCCCCCCCCOC[C@H](COP(=O)(O)OC[C@H]1O[C@@](C#N)(c2ccc3c(N)ncnn23)[C@H](O)[C@@H]1O)OCc1cccc(C#N)c1` = 1810

selectivity ratio measured on `CCCCCCCCCCCCCCCCCCOC[C@H](COP(=O)(O)OC[C@H]1O[C@@](C#N)(c2ccc3c(N)ncnn23)[C@H](O)[C@@H]1O)OCc1ccc(C#N)cc1` = 1400

selectivity ratio measured on `CCCCCCCCCCCCCCCCCCOC[C@H](COP(=O)(O)OC[C@H]1O[C@@](C#N)(c2ccc3c(N)ncnn23)[C@H](O)[C@@H]1O)OCc1cccc(F)c1` = 422

---

# assayName: Cytotoxicity against human iPSC-lung cells assessed as reduction in number of nuclei incubated for 24 hrs by celltiter glo assay
# Assay type: toxicity, cell-based, iPSC-Lung cell
I'd appreciate it if you could supply CC50 at 24 h values for the items below.

CC50 at 24 h measured on `CCCCCCCC/C=C\CCCCCCCCOC[C@H](COP(=O)(O)OC[C@H]1O[C@@](C#N)(c2ccc3c(N)ncnn23)[C@H](O)[C@@H]1O)OCc1ccc(OC)c(F)c1` = > 20 µM

CC50 at 24 h measured on `CCCCCCCC/C=C\CCCCCCCCOC[C@H](COP(=O)(O)OC[C@H]1O[C@@](C#N)(c2ccc3c(N)ncnn23)[C@H](O)[C@@H]1O)OCc1ccccc1` = > 20 µM

---

I'd appreciate it if you could supply selectivity ratio values for the items below.
# assayName: Selectivity index, ratio of CC50 for cytotoxicity against human calu-3 cells to EC50 for antiviral activity against SARS CoV-2 USA-WA1/2020 infected in human Calu-3 cells
# Format: toxicity, cell-based
# assaySetup: read-out: Ratio CC50/EC50
// no unit string in output, number only

selectivity ratio measured on `CCCCCCCC/C=C\CCCCCCCCOC[C@H](COP(=O)(O)OC[C@H]1O[C@@](C#N)(c2ccc3c(N)ncnn23)[C@H](O)[C@@H]1O)OCc1ccccc1` = 410

selectivity ratio measured on `CCCCCCCCCCCCCCCCCCOC[C@H](COP(=O)(O)OC[C@H]1O[C@@](C#N)(c2ccc3c(N)ncnn23)[C@H](O)[C@@H]1O)OCc1ccccc1C#N` = 909

selectivity ratio measured on `CCCCCCCC/C=C\CCCCCCCCOC[C@H](COP(=O)(O)OC[C@H]1O[C@@](C#N)(c2ccc3c(N)ncnn23)[C@H](O)[C@@H]1O)OCc1ccc(OC)c(F)c1` = 839

---

I'd appreciate it if you could supply selectivity ratio values for the items below.
# assayName: Selectivity index, ratio of CC50 for cytotoxicity against human Huh7.5 cells to EC50 for antiviral activity against SARS CoV-2 USA-WA1/2020 infected in human Huh7.5 cells
# Assay type: toxicity, cell-based
# assaySetup: read-out: Ratio CC50/EC50
// no unit string in output, number only

selectivity ratio measured on `CCCCCCCCCCCCCCCCCCOC[C@H](COP(=O)(O)OC[C@H]1O[C@@](C#N)(c2ccc3c(N)ncnn23)[C@H](O)[C@@H]1O)OCCC1CCCCC1` = 758

selectivity ratio measured on `CCCCCCCCCCCCCCCCOC[C@H](COP(=O)(O)OC[C@H]1O[C@@](C#N)(c2ccc3c(N)ncnn23)[C@H](O)[C@@H]1O)OCc1ccc(OC)c(F)c1` = 1180

selectivity ratio measured on `CCCCCCCCCCCCCCCCCCOC[C@H](COP(=O)(O)OC[C@H]1O[C@@](C#N)(c2ccc3c(N)ncnn23)[C@H](O)[C@@H]1O)OCc1ccc(C#N)cc1` = 1970

selectivity ratio measured on `CCCCCCCCCCCCCCCCCCOC[C@H](COP(=O)(O)OC[C@H]1O[C@@](C#N)(c2ccc3c(N)ncnn23)[C@H](O)[C@@H]1O)OCc1cccc(F)c1` = 392

selectivity ratio measured on `CCCCCCCCCCCCCCCCCCOC[C@H](COP(=O)(O)OC[C@H]1O[C@@](C#N)(c2ccc3c(N)ncnn23)[C@H](O)[C@@H]1O)OCc1cccc(C#N)c1` = 2070

selectivity ratio measured on `CCCCCCCCCCCCCCCCCCOC[C@H](COP(=O)(O)OC[C@H]1O[C@@](C#N)(c2ccc3c(N)ncnn23)[C@H](O)[C@@H]1O)OCc1ccc(OC)c(F)c1` = 1170
